# assay summary: inhibitors of Toxoplasma growth in IFN-γ-primed HeLa – cell-based, ME49Luc, luciferase, 72 h, dose response (AID 1259418)
# conditions used: T. gondii ME49Luc in IFN-y HeLa, active compounds read low, -100% = high-dose IFN-γ control wells; at 19.5 µM unless noted
About 840 (25%) of roughly 3,400 compounds were called active. About 11% were inconclusive and are not listed. These entries were drawn from the full list. Measured potencies and affinities stand elsewhere.
This listing pairs compounds with measured max activity.
observed property: max activity

>>> result("CCOC(=O)C1CCN(S(=O)(=O)c2cc(-c3nc(C(C)(C)C)cs3)cs2)CC1")
"7.71% [at 0.68 µM] (inactive)"
>>> result("CCOc1ccccc1N(Cc1nc(-c2cccc(C)c2)oc1C)S(=O)(=O)c1cccs1")
"10.6% (inactive)"
>>> result("Cc1cc(C)cc(C(=O)N2CCC[C@@H]2C(=O)NCCc2csc(-c3ccccc3)n2)c1")
"-12.7% (inactive)"
>>> result("CCOc1ccc(-c2nc(CN(c3ccc(OC)cc3)S(=O)(=O)c3ccc(C)cc3)c(C)o2)cc1")
"8.75% [at 1.35 µM] (inactive)"
>>> result("COc1ccc(S(=O)(=O)N2CCC[C@@H]2C(=O)NCCc2csc(C)n2)cc1")
"-6.98% [at 5 µM] (inactive)"
>>> result("COc1ccccc1N(Cc1nc(-c2ccccc2)oc1C)S(=O)(=O)c1cccs1")
"-5.51% [at 0.68 µM] (inactive)"
>>> result("COc1ccc(-c2nc(N(C)Cc3ccccc3)c3ccccc3n2)cc1")
"21.9% (inactive)"
>>> result("CCOc1ccccc1NC(=O)Nc1ccc(-c2nc(-c3ccc(C)cc3)co2)cc1")
"-10.4% (inactive)"
>>> result("CCOc1ccccc1N(Cc1nc(-c2cccc(Cl)c2)oc1C)S(=O)(=O)c1cccs1")
"6.9% (inactive)"
>>> result("CN1C(=O)CCc2cc(NC(=O)c3ccnn3C)ccc21")
"26.8% (inactive)"
>>> result("COc1ccc(-c2nc(Cn3nnc(-c4nc(-c5ccc(Cl)cc5)no4)c3C)c(C)o2)cc1")
"6.38% (inactive)"
>>> result("CC(CCc1ccccc1)Nc1nc(-c2ccc(Cl)cc2)nc2ccccc12 (stereo unspecified)")
"-14.3% [at 5 µM] (inactive)"
>>> result("O=C(Nc1ccc(Br)cc1)Nc1ccc(-c2nc(-c3ccccc3)co2)cc1")
"-11.6% (inactive)"
>>> result("O=C(Nc1ccc(-c2nc(-c3ccccc3)co2)cc1)Nc1ccccc1F")
"103% (inactive)"
>>> result("COc1cc(Nc2nc(SCc3ccc(Cl)cc3)nc3ccccc23)cc(OC)c1")
"21% [at 5 µM] (inactive)"
>>> result("N#Cc1ccc(-c2ccc3c(c2)[C@H]2[C@H](CCN2C(=O)C2CCCCC2)[C@@H](CO)N3)cc1")
"27.2% [at 10 µM] (inactive)"
>>> result("CCc1nc(OCC(=O)Nc2ccc(OC)cc2)c2ccccc2n1")
"-14.2% (inactive)"
>>> result("CN(Cc1ccco1)c1nc(-c2ccc(Cl)cc2)nc2ccccc12")
"-31.8% [at 0.16 µM] (inactive)"
>>> result("Fc1ccc(Nc2nc(SCc3cccc(Cl)c3)nc3ccccc23)cc1")
"-13.6% [at 1.35 µM] (inactive)"
>>> result("CCCCC[C@H](CC(=O)NO)C(=O)N[C@H](C(=O)N1CCC[C@H]1CO)C(C)C")
"15.6% (inactive)"
>>> result("COc1ccccc1N(Cc1nc(-c2ccc(OC(C)C)cc2)oc1C)S(=O)(=O)c1cccs1")
"-8.76% [at 0.35 µM] (inactive)"
